tested system: T. thermophilus RfbF (Thermus thermophilus, UniProt Q72KB9)
Sequence (Q72KB9 entry or part of it): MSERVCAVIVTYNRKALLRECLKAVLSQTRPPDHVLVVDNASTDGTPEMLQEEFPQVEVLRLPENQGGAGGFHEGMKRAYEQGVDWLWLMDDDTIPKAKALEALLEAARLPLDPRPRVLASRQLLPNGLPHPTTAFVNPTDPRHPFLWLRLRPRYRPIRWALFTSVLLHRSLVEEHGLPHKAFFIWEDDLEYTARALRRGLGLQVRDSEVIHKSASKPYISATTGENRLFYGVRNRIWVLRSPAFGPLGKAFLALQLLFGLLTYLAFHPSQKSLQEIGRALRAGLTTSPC
assay name: Isothermal titration calorimetry (ITC) binding measurements with RfbF
recorded conditions: KD, ITC, 25 °C, ligand titrated into 110 µM RfbF, one-site model; spread = SD, triplicate
pKd: −log10 of the molar value.
attribute measured: pKd

INSERT INTO assay_data (molecule, numeric_readout) VALUES
  ('Cc1cn(C2CC(O)C(COP(=O)(O)OP(=O)(O)OC3OC(C)C(O)C(O)C3O)O2)c(=O)[nH]c1=O [dTDP-β-L-6dTal, dTDP-6-deoxy-β-L-talose]', 4.78),
  ('CC1OC(OP(=O)(O)OP(=O)(O)OCC2OC(n3ccc(=O)[nH]c3=O)C(O)C2O)C(O)C(O)C1O (stereo not drawn)', 4.44),
  ('Cc1cn(C2CC(O)C(COP(=O)(O)OP(=O)(O)OC3OC(C)C(O)C(O)C3O)O2)c(=O)[nH]c1=O [dTDP-β-L-Fuc, dTDP-β-L-fucose]', 3.90),
  ('Cc1cn(C2CC(O)C(COP(=O)(O)OP(=O)(O)OC3OC(C)C(O)C(O)C3O)O2)c(=O)[nH]c1=O [dTDP-β-L-Rha, reference compound]', 5.08),
  ('Cc1cn(C2CC(O)C(COP(=O)(O)OP(=O)(O)OC3OC(CO)C(O)C(O)C3O)O2)c(=O)[nH]c1=O [dTDP-β-L-Man, dTDP-β-L-mannose]', 3.30),
  ('Cc1cn(C2CC(O)C(COP(=O)(O)OP(=O)(O)OC3OC(CO)C(O)C(O)C3O)O2)c(=O)[nH]c1=O [dTDP-α-D-Glc, dTDP-a-D-glucose, reference compound]', 3.20);
